# Test system: Candida albicans
# Experiment: Antifungal activity against Candida albicans
# Assay type: functional
# key: entry, value: p(1/MIC)
Observation Type: p(1/MIC)

>>> endpoint_value("CCc1ccc(-c2nc3cc(NC(=O)SCc4ccccc4)ccc3o2)cc1")
2.161
>>> endpoint_value("O=C(OCCCl)OC(Cn1cncn1)(Cn1cncn1)c1ccc(F)cc1F")
3.374
>>> endpoint_value("C=CCCCCCCCCCOP(=O)(OC)OC(Cn1cncn1)(Cn1cncn1)c1ccc(F)cc1F (configuration not stated)")
2.616
>>> endpoint_value("CC(C)C(c1cn(Cc2ccc(Cl)cc2)c2ccccc12)n1ccnc1 (configuration not stated)")
1.138
>>> endpoint_value("C[N+](C)([BH2-]C#N)C[Si](C)(C)C")
3.468
>>> endpoint_value("Cc1c(C(C)n2ccnc2)c2ccccc2n1Cc1ccc(F)cc1 (configuration not stated)")
1.819
>>> endpoint_value("CC(Br)C(=O)OC(Cn1cncn1)(Cn1cncn1)c1ccc(F)cc1F (configuration not stated)")
3.172
>>> endpoint_value("C=CCC[N+](C)(C)[BH2-]C#N")
2.672
>>> endpoint_value("Clc1ccc(Cn2cc(Cn3ccnc3)c3ccccc32)c(Cl)c1")
1.147
>>> endpoint_value("C[N+](C)(C)[BH2-]C#N")
3.708
>>> endpoint_value("O=C(Nc1ccc2oc(-c3ccc(F)cc3)nc2c1)c1ccccc1")
2.1
>>> endpoint_value("C=CCCCC[N+](C)(C)[BH2-]C#N")
1.973
>>> endpoint_value("CCCC(Br)C(=O)OC(Cn1cncn1)(Cn1cncn1)c1ccc(F)cc1F (configuration not stated)")
2.768
>>> endpoint_value("CCC(Br)C(=O)OC(Cn1cncn1)(Cn1cncn1)c1ccc(F)cc1F (configuration not stated)")
2.846
>>> endpoint_value("CCCCC[N+](C)(C)[BH2-]C#N")
2.909
>>> endpoint_value("O=C(Nc1ccc2oc(-c3ccccc3)nc2c1)SCc1ccccc1")
1.839
>>> endpoint_value("CCCCCCCCC[N+](C)(C)[BH2-]C#N")
2.176
>>> endpoint_value("Fc1ccc(Cn2cc(Cn3ccnc3)c3ccccc32)c(F)c1")
1.695
>>> endpoint_value("CCCCCCCCOP(=O)(OCCC#N)OC(Cn1cncn1)(Cn1cncn1)c1ccc(F)cc1F (configuration not stated)")
3.091
>>> endpoint_value("CCCCCCCCCCCCC[N+](C)(C)[BH2-]C#N")
1.763
>>> endpoint_value("CCCCCCCCCC(O)C[N+](C)(C)[BH2-]C#N (configuration not stated)")
2.692
>>> endpoint_value("CC(=O)OC(Cn1cncn1)(Cn1cncn1)c1ccc(F)cc1F")
3.61

###

# key: entry, value: p(1/MIC)
# Test system: Candida albicans
# Experiment: Antifungal activity against Candida albicans
# Format: functional
Observation Type: p(1/MIC)

>>> endpoint_value("O=C(Nc1ccc2oc(-c3ccc(F)cc3)nc2c1)SCc1ccccc1")
1.813
>>> endpoint_value("CCCCCCC(Br)C(=O)OC(Cn1cncn1)(Cn1cncn1)c1ccc(F)cc1F (stereo not drawn)")
1.431
>>> endpoint_value("C[N+](C)(CCCCCCCCCC[N+](C)(C)[BH-](Br)C#N)[BH-](Br)C#N (stereo not drawn)")
2.146
>>> endpoint_value("CN(C)c1ccc(-c2nc3cc(NC(=O)OCc4ccc(Cl)cc4)ccc3o2)cc1")
1.875
>>> endpoint_value("C[N+](C)(C)[B-](Br)(Br)C#N")
3.295
>>> endpoint_value("Cc1c(C(C)n2ccnc2)c2ccccc2n1Cc1ccc(Br)cc1 (stereo not drawn)")
2.404
>>> endpoint_value("CCc1ccc(-c2nc3cc(NC(=O)CCc4ccccc4)ccc3o2)cc1")
1.813
>>> endpoint_value("CCCCCCCCCCCCCCOP(=O)(O)OC(Cn1cncn1)(Cn1cncn1)c1ccc(F)cc1F")
3.208
>>> endpoint_value("C[N+](C)([BH2-]C#N)CC(O)c1ccccc1 (stereo not drawn)")
2.389
>>> endpoint_value("CCc1ccc(-c2nc3cc(NC(=O)OCc4ccc(Cl)cc4)ccc3o2)cc1")
1.792
>>> endpoint_value("CCCCCCCCCCCCCC(=O)OC(Cn1cncn1)(Cn1cncn1)c1ccc(F)cc1F")
3.143
>>> endpoint_value("CC(C)(C)C(c1cn(Cc2ccc(Cl)cc2)c2ccccc12)n1ccnc1 (stereo not drawn)")
1.208
>>> endpoint_value("Cc1c(Cn2ccnc2)c2cc(Br)ccc2n1Cc1ccccc1Cl")
2.397
>>> endpoint_value("CCCCCCCCCCCCCCC[N+](C)(C)[BH2-]C#N")
1.724
>>> endpoint_value("CC[N+](C)(C)[BH2-]C#N [(CYANOBORANYLIDENE)(ETHYL)DIMETHYLAMINE]")
3.649
>>> endpoint_value("C[N+](C)([BH2-]C#N)CC1(O)C=CCC1 (stereo not drawn)")
3.142
>>> endpoint_value("Fc1ccc(Cn2cc(Cn3ccnc3)c3ccccc32)cc1")
1.117
>>> endpoint_value("CN(C)c1ccc(-c2nc3cc(NC(=O)CCc4ccccc4)ccc3o2)cc1")
1.82
>>> endpoint_value("CCCCCCCCCCC[N+](C)(C)[B-](Br)(Br)C#N")
1.591
>>> endpoint_value("Cc1c(Cn2ccnc2)c2cc(Br)ccc2n1Cc1ccc(F)cc1")
2.415
>>> endpoint_value("O=C(CCc1ccccc1)Nc1ccc2oc(-c3ccc(F)cc3)nc2c1")
2.127
>>> endpoint_value("Cc1c(Cn2ccnc2)c2ccccc2n1Cc1cc(Cl)ccc1Cl")
1.432
>>> endpoint_value("Clc1ccc(Cn2cc(Cn3ccnc3)c3ccccc32)cc1")
1.924
>>> endpoint_value("CN(C)c1ccc(-c2nc3cc(NC(=O)OCc4ccccc4)ccc3o2)cc1")
2.143
>>> endpoint_value("CCCCCCCCCCC(Br)C(=O)OC(Cn1cncn1)(Cn1cncn1)c1ccc(F)cc1F (stereo not drawn)")
3.412
>>> endpoint_value("O=C(Cc1ccc([N+](=O)[O-])cc1)Nc1ccc2oc(-c3ccc(F)cc3)nc2c1")
1.532
>>> endpoint_value("CCCCC(Br)C(=O)OC(Cn1cncn1)(Cn1cncn1)c1ccc(F)cc1F (stereo not drawn)")
2.1
>>> endpoint_value("C[N+](C)([BH2-]C(=O)O)CCCCCCCCCC[N+](C)(C)[BH2-]C(=O)O")
2.274
>>> endpoint_value("O=C(Cc1ccccc1)Nc1ccc2oc(-c3ccc(F)cc3)nc2c1")
1.82
>>> endpoint_value("N#CCCOP(=O)(OCCCCCCCCCCCBr)OC(Cn1cncn1)(Cn1cncn1)c1ccc(F)cc1F (stereo not drawn)")
3.392
>>> endpoint_value("CCCC[N+](C)(C)[BH2-]C#N [BUTYL(CYANOBORANYLIDENE)DIMETHYLAMINE]")
3.553
>>> endpoint_value("Cc1c(Cn2ccnc2)c2ccccc2n1Cc1ccc(F)cc1")
2.496
>>> endpoint_value("C[N+](C)([BH2-]C#N)CCCCCCCCCCCC[N+](C)(C)[BH2-]C#N")
1.982
>>> endpoint_value("C[N+](C)([BH2-]C#N)CCCCCCCCCC[N+](C)(C)[BH2-]C#N")
2.611
>>> endpoint_value("CCCCCCCCCCC[N+](C)(C)[BH2-]C#N")
1.512
>>> endpoint_value("O=P(O)(OCCCCCCCCCCCBr)OC(Cn1cncn1)(Cn1cncn1)c1ccc(F)cc1F")
3.377
>>> endpoint_value("CCCCCCCCCCC[N+](C)(C)[BH-](Br)C#N (stereo not drawn)")
1.69
>>> endpoint_value("CCCCCCCCCCCCCCOP(=O)(OCCC#N)OC(Cn1cncn1)(Cn1cncn1)c1ccc(F)cc1F (stereo not drawn)")
3.17
>>> endpoint_value("CCCCCCCCCCCC[N+](C)(C)[BH2-]C#N")
1.785
>>> endpoint_value("O=C(OC(Cn1cncn1)(Cn1cncn1)c1ccc(F)cc1F)C(Br)CCCCCCCCCCBr (stereo not drawn)")
1.342
>>> endpoint_value("Cc1c(Cn2ccnc2)c2cc(Br)ccc2n1Cc1ccccc1F")
2.415
>>> endpoint_value("Cc1c(Cn2ccnc2)c2cc(Br)ccc2n1Cc1ccc(Cl)cc1")
1.902
>>> endpoint_value("CCCCCCCCOP(=O)(OC)OC(Cn1cncn1)(Cn1cncn1)c1ccc(F)cc1F (stereo not drawn)")
2.962
